# Lookup of reported composite z-score keyed by entry
- Test system: Noggin (protein binding on small-molecule microarray)
- assayOverview: Noggin binders on small-molecule microarray, primary screen, biochemical, 635/667 nm fluorescence (AID 1095);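 note: score merges 667 nm feature fluorescence with signal to noise over triplicate slides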
- conditions: 635 nm fluorescence, higher = more signal
Hey, just send me the number, nothing else.

Below, each entry is followed by its recorded composite z-score result.
compound: O=C1N[C@@H](Cc2ccccc2)C(=O)N2[C@@H]1C[C@@H](C(=O)O)[C@H]2c1ccc(O)cc1
composite z-score: 1.5

compound: COc1cc(NN2C(C(O)c3ccccc3)C=CC3C(=O)N(C)C(=O)C32)cc(OC)c1OC (stereo not given)
composite z-score: 0.27

compound: CC(CO)N1C(=O)[C@@H]2[C@H]3C(=O)OCC=C[C@H]3OC23C=CCN(c2ccc(Cl)cc2)C(=O)[C@@H]13 (stereo not given in full)
composite z-score: -2.26

Query :: Look at this compound and give its reported composite z-score. CC1(C)C(=O)C(c2ccccc2)=C2CN3C(=O)N(CCc4ccccc4)C(=O)C3(Cc3ccc(C(F)(F)F)cc3)C=C21 (stereo not given)
Result :: -0.0717

Query :: Moving on to CN1C(=O)C2C=CC(C(O)c3ccc(F)cc3)N(NC(=O)OC(C)(C)C)C2C1=O (stereo not given)
Result :: -0.205

Query :: Queued: NC(=O)[C@H]1[C@@H]2C(=O)O[C@@H](c3ccccc3)[C@@H](c3ccccc3)N2[C@@H](c2ccc(O)cc2)[C@]12C(=O)Nc1ccc(C#CC3=CCCCC3)cc12
Result :: 0.186

Query :: Consider next the compound C=C[C@@H](C)[C@H](O)c1ccc(OCCO)cc1 in the same way.
Result :: -1.34

Query :: Next record, please: CC(C)C[C@@H]1NC(=O)CNC(=O)[C@@]23C(=O)N[C@@H](Cc4ccccc4)C2[C@H](C)[C@@]2(C)O[C@H]2C3/C=C/C/C=C\CNC1=O (stereo not given in full)
Result :: 0.363
